experimental.target: Rat NHE-3 (Rattus norvegicus, UniProt P26433)
Construct: expressed in transfected cells; host or cells: Opossum kidney (OK) cells (ATCC), transfected by electroporation
Sequence (P26433 29-831): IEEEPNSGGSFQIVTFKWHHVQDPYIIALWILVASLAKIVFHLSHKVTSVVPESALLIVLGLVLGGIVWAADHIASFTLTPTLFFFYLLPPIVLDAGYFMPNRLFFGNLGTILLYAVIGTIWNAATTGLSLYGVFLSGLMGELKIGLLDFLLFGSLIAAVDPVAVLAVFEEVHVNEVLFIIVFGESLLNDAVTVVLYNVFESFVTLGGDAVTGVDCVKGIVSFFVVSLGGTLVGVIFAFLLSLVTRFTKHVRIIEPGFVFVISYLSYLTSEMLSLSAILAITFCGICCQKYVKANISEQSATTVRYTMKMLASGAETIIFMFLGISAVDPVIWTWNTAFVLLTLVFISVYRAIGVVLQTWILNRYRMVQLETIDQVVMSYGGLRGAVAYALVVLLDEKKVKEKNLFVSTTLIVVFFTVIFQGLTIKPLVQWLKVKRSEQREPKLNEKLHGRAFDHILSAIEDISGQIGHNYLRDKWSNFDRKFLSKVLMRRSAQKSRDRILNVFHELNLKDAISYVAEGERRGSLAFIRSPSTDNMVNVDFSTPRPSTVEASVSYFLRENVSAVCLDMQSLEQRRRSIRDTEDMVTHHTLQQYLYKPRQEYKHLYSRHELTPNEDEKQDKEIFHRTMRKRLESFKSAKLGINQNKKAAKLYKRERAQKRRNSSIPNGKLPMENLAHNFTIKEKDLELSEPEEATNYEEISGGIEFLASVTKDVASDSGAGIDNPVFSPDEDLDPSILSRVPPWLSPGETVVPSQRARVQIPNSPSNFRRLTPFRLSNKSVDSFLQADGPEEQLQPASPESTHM
procedure.details: Cell-based assay of NHE-3 activity (rat NHE-3 prompt inhibition)
conditions: OK cells with rat NHE-3 gene, compound present during pH recovery; read-out: Rat NHE3 pIC50 (prompt) (converted)
Description: Rat or human NHE-3-mediated Na^+-dependent H^+ antiport was measured using a modification of the pH sensitive dye method originally reported by Paradiso (Proc. Natl. Acad. Sci. USA. (1984) 81(23): 7436-7440). Opossum kidney (OK) cells were obtained from the ATCC and propagated per their instructions. The rat NHE-3 gene (GenBank M85300) or the human NHE-3 gene (GenBank NM_004174.1) was introduced into OK cells via electroporation, and cells were seeded into 96 well plates and grown overnight. […]
readout.kind: IC50

# count of solved cases: 4
CN1Cc2c(Cl)cc(Cl)cc2[C@H](c2cccc(S(=O)(=O)NCCOCCOCCNC(=O)CCC(CCC(=O)NCCOCCOCCNS(=O)(=O)c3cccc([C@@H]4CN(C)Cc5c(Cl)cc(Cl)cc54)c3)(CCC(=O)NCCOCCOCCNS(=O)(=O)c3cccc([C@@H]4CN(C)Cc5c(Cl)cc(Cl)cc54)c3)NS(C)(=O)=O)c2)C1: 0.1 to 10 µM
CN1Cc2c(Cl)cc(Cl)cc2[C@H](c2cccc(S(=O)(=O)NCCOCCOCCNC(=O)CCC(CCC(=O)NCCOCCOCCNS(=O)(=O)c3cccc([C@@H]4CN(C)Cc5c(Cl)cc(Cl)cc54)c3)(CCC(=O)NCCOCCOCCNS(=O)(=O)c3cccc([C@@H]4CN(C)Cc5c(Cl)cc(Cl)cc54)c3)NC(=O)NCCS(=O)(=O)O)c2)C1: < 0.1 µM
CN1Cc2c(Cl)cc(Cl)cc2[C@H](c2cccc(S(=O)(=O)NCCOCCOCCNC(=O)CCC(CCC(=O)NCCOCCOCCNS(=O)(=O)c3cccc([C@@H]4CN(C)Cc5c(Cl)cc(Cl)cc54)c3)(CCC(=O)NCCOCCOCCNS(=O)(=O)c3cccc([C@@H]4CN(C)Cc5c(Cl)cc(Cl)cc54)c3)NC(=O)NC(CO)(CO)CO)c2)C1: > 10 µM
CC(O)C(CCC(=O)NCCOCCOCCNS(=O)(=O)c1cccc([C@@H]2CN(C)Cc3c(Cl)cc(Cl)cc32)c1)(CCC(=O)NCCOCCOCCNS(=O)(=O)c1cccc([C@@H]2CN(C)Cc3c(Cl)cc(Cl)cc32)c1)CCC(=O)NCCOCCOCCNS(=O)(=O)c1cccc([C@@H]2CN(C)Cc3c(Cl)cc(Cl)cc32)c1 (stereo partly drawn): < 0.1 µM

Inquiry: // returns reported IC50 for input `CCCCCCCCOc1ccc(CNC(CCC(=O)NCCOCCOCCOCCNS(=O)(=O)c2cccc([C@@H]3CN(C)Cc4c(Cl)cc(Cl)cc43)c2)(CCC(=O)NCCOCCOCCOCCNS(=O)(=O)c2cccc([C@@H]3CN(C)Cc4c(Cl)cc(Cl)cc43)c2)CCC(=O)NCCOCCOCCOCCNS(=O)(=O)c2cccc([C@@H]3CN(C)Cc4c(Cl)cc(Cl)cc43)c2)cc1`
Reply text: 0.1 to 10 µM

Inquiry: Need IC50 of `CCC(=O)NC(CCC(=O)NCCOCCOCCOCCNS(=O)(=O)c1cccc([C@@H]2CN(C)Cc3c(Cl)cc(Cl)cc32)c1)(CCC(=O)NCCOCCOCCOCCNS(=O)(=O)c1cccc([C@@H]2CN(C)Cc3c(Cl)cc(Cl)cc32)c1)CCC(=O)NCCOCCOCCOCCNS(=O)(=O)c1cccc([C@@H]2CN(C)Cc3c(Cl)cc(Cl)cc32)c1` , thanks.
Reply text: < 0.1 µM

Reference source: patent US10385024B2
